Assay: Inhibition of FTase
Endpoint: pIC50
// field semantics: pIC50 = negative decimal log of concentration (mol/L)

INSERT INTO measurements (compound, value_measured) VALUES
  ('N#Cc1ccc(Cn2cncc2CN2CCC(c3ccccc3)N(C(=O)C3CCCCC3)CC2)cc1 (centres undefined)', 6.30);

Prompt line: State, in one line, measured pIC50 of N#Cc1ccc(Cn2cncc2CN2CCCN(C(=O)c3cccc4ccccc34)CC2)cc1
Response line: 7.41

Prompt line: State, in one line, measured pIC50 of N#Cc1ccc(Cn2cncc2CN2CCN(C(=O)c3ccccc3)CCC2c2ccccc2)cc1 (centres undefined)
Response line: 8.05

Prompt line: State, in one line, measured pIC50 of N#Cc1ccc(Cn2cncc2CN2CCCN(C(=O)Cc3cccc4ccccc34)CC2)cc1
Response line: 7.89

Prompt line: State, in one line, measured pIC50 of N#Cc1ccc(Cn2cncc2CN2CCCN(C(=O)c3ccc(Cl)cc3Cl)CC2)cc1
Response line: 7.39

Prompt line: State, in one line, measured pIC50 of N#Cc1ccc(Cn2cncc2CN2CCCN(C(=O)c3ccsc3)CC2)cc1
Response line: 7.38

Prompt line: State, in one line, measured pIC50 of N#Cc1ccc(Cn2cncc2CN2CCC(c3ccccc3)N(C(=O)c3cccc4ccccc34)CC2)cc1 (centres undefined)
Response line: 7.22

Prompt line: State, in one line, measured pIC50 of COc1cccc(C(=O)N2CCCN(Cc3cncn3Cc3ccc(C#N)cc3)CC2)c1OC
Response line: 7.37

Prompt line: State, in one line, measured pIC50 of N#Cc1ccc(Cn2cncc2CN2CCCN(C(=O)c3ccncc3)CC2)cc1
Response line: 6.85

====

Assay: Inhibition of FTase
IC50 values for the molecules below.
Expressed in µM, but write only the number.

Illustrative cases are given below, each with its answer.
INSERT INTO assay_data (molecule, readout_units, value_measured) VALUES
  ('N#Cc1ccc(Cn2cncc2CN2CCCN(C(=O)c3ccc(F)cc3)CC2)cc1', 'µM', 0.069),
  ('N#Cc1ccc(Cn2cncc2CN2CCC(c3ccccc3)N(C(=O)c3ccccc3)CC2)cc1 (centres undefined)', 'µM', 0.079);

Prompt line: State, in one line, measured IC50 of N#Cc1ccc(Cn2cncc2CN2CCC(c3ccccc3)N(C(=O)C34CC5CC(CC(C5)C3)C4)CC2)cc1 (centres undefined)
Response line: 0.017

Prompt line: State, in one line, measured IC50 of N#Cc1ccc(Cn2cncc2CN2CCCN(C(=O)c3ccc(-c4ccccc4)cc3)CC2)cc1
Response line: 0.153

Prompt line: State, in one line, measured IC50 of N#Cc1ccc(Cn2cncc2CN2CCN(C(=O)C3CCCCC3)CCC2c2ccccc2)cc1 (centres undefined)
Response line: 0.007

Prompt line: State, in one line, measured IC50 of N#Cc1ccc(Cn2cncc2CN2CCCN(C(=O)c3cccc(-c4ccccc4)c3)CC2)cc1
Response line: 0.043

Prompt line: State, in one line, measured IC50 of N#Cc1ccc(Cn2cncc2CN2CCN(C(=O)C34CC5CC(CC(C5)C3)C4)CCC2c2ccccc2)cc1 (centres undefined)
Response line: 0.006

Prompt line: State, in one line, measured IC50 of N#Cc1ccc(Cn2cncc2CN2CCCN(C(=O)c3ccccc3Cl)CC2)cc1
Response line: 0.025

Prompt line: State, in one line, measured IC50 of N#Cc1ccc(Cn2cncc2CN2CCN(C(=O)c3cccc4ccccc34)CCC2c2ccccc2)cc1 (centres undefined)
Response line: 0.018
